- Assayed system: T1, murine PCSK-9 (murine, UniProt Q80W65 35-694)
- T1 construct: also called mouse PCSK9
- Assay explanation: MSD-SET, Fab with biotin-PCSK9 in solution, IgG on plate, pH 7.4
Measured Kd accompanies every entry in the list below.
# output: bare number, implied unit nM

Here are 2 binders together with their reported answers.
ADI-10085 Fab (Fab, V domains shown) VH: QLQLQESGPGLVKPSETLSLTCTVSGGSIVSSSYYWAWIRQPPGKGLEWIGSINYKGSTYYNPSLKSRVTISVDTSKNQFSLKLSSVTAADTAVYYCARENSGVVPAAGPNWFGPWGQGTLVTVSS VL: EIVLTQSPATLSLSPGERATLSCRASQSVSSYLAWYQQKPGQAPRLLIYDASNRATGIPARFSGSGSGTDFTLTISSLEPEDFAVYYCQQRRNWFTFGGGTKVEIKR	0.041
ADI-10086 Fab (Fab, V domains shown) VH: QLQLQESGPGLVKPSETLSLTCTVSGGSIRSSAYYWGWIRQPPGKGLEWIGSINYRGSTYYNPSLKSRVTISVDTSKNQFSLKLSSVTAADTAVYYCARENSGVVPAAGPNWFGPWGQGTLVTVSS VL: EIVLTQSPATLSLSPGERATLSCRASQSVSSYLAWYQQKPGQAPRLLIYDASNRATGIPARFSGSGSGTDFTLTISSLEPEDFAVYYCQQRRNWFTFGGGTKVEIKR	0.06

Now, please, on to the next binder.
Ask: Sample ADI-10087 Fab (Fab, V domains shown) VH: QLQLQESGPGLVKPSETLSLTCTVSGGSISSASYYWSWIRQPPGKGLEWIGSINYRGSTYYNPSLKSRVTISVDTSKNQFSLKLSSVTAADTAVYYCARENSGVVPAAGPNWFGPWGQGTLVTVSS VL: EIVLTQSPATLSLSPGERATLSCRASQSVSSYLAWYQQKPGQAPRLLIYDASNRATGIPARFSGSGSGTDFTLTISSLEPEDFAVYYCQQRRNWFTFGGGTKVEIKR — what was its Kd?
Result: 0.041
